Target entity: nucleolin expressed on the surface of human cancer cell lines (human, UniProt P19338)
Method: cell-based or functional assay
Mark True only when IC50 of cytotoxicity (MTT), MDA-MB-435S breast cancer cells, 120 h stays strictly below 5 µM. Values equal to the cut-off are False.

Example cases with answers are listed next.
Binder	Label value
RARLQRRSARLSAK	True
RARLQRRSARL [R1ARLQRRSARL11]	False
RARLQRRSARLS [R1ARLQRRSARLS12]	False
RVRLQRRSARLSAK [R1VRLQRRSARLSAK14]	True

Prompt: Quick check: does KDEPQRRSARLSAK [F3-14 mer fragment] have IC50 of cytotoxicity (MTT), MDA-MB-435S breast cancer cells, 120 h under 5 µM?
Completion: False

Prompt: Quick check: does HARLQRRSARLSAK [H1ARLQRRSARLSAK14] have IC50 of cytotoxicity (MTT), MDA-MB-435S breast cancer cells, 120 h under 5 µM?
Completion: True

Prompt: Quick check: does HAHLQRRSARLSAK [H1AHLQRRSARLSAK14] have IC50 of cytotoxicity (MTT), MDA-MB-435S breast cancer cells, 120 h under 5 µM?
Completion: True

Attribution: patent US20110124564A1
